- TGT: Adenosine kinase (Homo sapiens)
- Sequence (P55263 whole entry): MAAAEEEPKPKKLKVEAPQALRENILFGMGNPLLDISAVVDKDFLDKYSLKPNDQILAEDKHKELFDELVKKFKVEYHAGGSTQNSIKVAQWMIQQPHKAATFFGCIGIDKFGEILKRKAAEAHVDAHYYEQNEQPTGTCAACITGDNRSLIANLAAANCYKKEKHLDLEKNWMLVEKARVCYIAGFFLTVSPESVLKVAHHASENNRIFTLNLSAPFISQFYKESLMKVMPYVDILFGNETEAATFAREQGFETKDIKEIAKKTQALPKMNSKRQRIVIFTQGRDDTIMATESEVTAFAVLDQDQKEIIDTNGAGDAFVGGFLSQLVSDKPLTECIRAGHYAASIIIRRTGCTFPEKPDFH
Activity calls are given as the source filed them.
Possible outcomes: active, inactive

| COMPOUND | CLASS NAME |
| --- | --- |
| O=c1[nH]c([C@@H]2CCCN2)nc2c1oc1ccc(Cl)cc12 | inactive |
| C=CCn1c(=O)c2cnc(Nc3ccc(N4CCN(C)CC4)cc3)nc2n1-c1cccc(C(C)(C)O)n1 [ADAVOSERTIB] | active |
| COc1cc2ncnc(Nc3ccc(F)c(Cl)c3)c2cc1NC(=O)/C=C/CN1CCCCC1 [DACOMITINIB ANHYDROUS] | inactive |
| FC(F)(F)c1ccc(CNc2ccc(Cc3c[nH]c4ncc(Cl)cc34)cn2)cn1 [PEXIDARTINIB] | inactive |
